- Tested on: CEM cells HIV-1 protection, formazan growth assay
- experimental-protocol: NCI AIDS Antiviral Assay
- protocol-conditions: measured here: growth of uninfected CEM cells
endpoint: log10 of IC50 (log10 of the value in µM)
// stored as log10 of IC50 expressed in µM

Item: CCOC(=O)CCN1C(=O)C(=O)N(c2ccc(OC)cc2)C1=S | log10 of IC50: 1.50

Item: Cc1cc(S(=O)(=O)Nc2nc(N)n(-c3ccccc3)n2)c(S)cc1Cl | log10 of IC50: 2.67

Item: Cc1ccc(S(=O)(=O)N2CC(O)C=Cc3ccccc32)cc1 (stereo unspecified) | log10 of IC50: 0.50

Item: O=C(Nc1ccc(Cl)cc1)c1ccccc1[Se][Se]c1ccccc1C(=O)Nc1ccc(Cl)cc1 | log10 of IC50: 0.93

Item: CSc1nc(C)c(C(=O)CCN2CCN(c3ccccn3)CC2)s1 | log10 of IC50: 0.64

Item: COC(=O)c1ccccc1CC1Cc2cc3c(cc2C1)CCC3 | log10 of IC50: 1.58

###

- Test system: CEM cells HIV-1 protection, formazan growth assay
- experimental-protocol: NCI AIDS Antiviral Assay
- protocol-conditions: measured here: growth of uninfected CEM cells
endpoint: pIC50
Conceptually, pIC50 converts a concentration in mol/L into minus its log10.

{"compound": "CC1C(C#N)(C#N)C(C#N)=C(N)C1(C)[N+](=O)[O-] (stereo not given)", "endpoint": "pIC50", "meas-value": 4.56}

pIC50 value, target or system CEM cells HIV-1 protection, formazan growth assay, for C#CC1(O)CCC2C3CCc4cc(OC)ccc4C3CCC21C (stereo not given) : 4.13

pIC50 value, target or system CEM cells HIV-1 protection, formazan growth assay, for NCCCNCCCCNCCCNCc1c2ccccc2c(CNCCCNCCCCNCCCN)c2ccccc12 : 5.42

###

- Test system: CEM cells HIV-1 protection, formazan growth assay
- experimental-protocol: NCI AIDS Antiviral Assay
- protocol-conditions: measured here: growth of uninfected CEM cells
- Procedure: The ability of compounds to protect human CEM cells from HIV-1 infection is measured as a screen for new compounds capable of inhibiting the HIV virus. Five concentrations of drug were tested on uninfected and infected cells and cell growth was measured using a soluble formazan assay. […] Compounds that provided at least 50% protection were retested. Compounds that provided at least 50% protection on retest were listed as moderately active. […]
IC50 values, listed per item

For orientation, consider the following solved cases.
{"compound": "Cc1ccc(S(=O)(=O)N/N=C/c2oc(-c3ccccc3Cl)c(-c3ccccc3Cl)c2[N+](=O)[O-])cc1", "IC50": "> 7.08 µM"}
{"compound": "COP(=O)(OC)C(N)CCSC (stereo not given)", "IC50": "> 200 µM"}
{"compound": "CCN1CN(c2ccccc2)C2(CCN(CC3COc4ccccc4O3)CC2)C1=O (stereo not given)", "IC50": "115 µM"}

Item: Cc1ccc(O)c(C(c2cccc(C(c3cc(C)ccc3O)c3cc(C)ccc3O)c2)c2cc(C)ccc2O)c1 | IC50: 3.31 µM

Item: Nc1nn2cc3c(nc2c1N=Nc1ccc(Cl)cc1)CCC3 | IC50: > 100 µM

Item: CNc1ccccc1S(=O)(=O)c1cc(Cl)ccc1OC | IC50: > 200 µM

Item: CSC(=Nc1ccccc1Cl)NC(=O)c1ccc(Br)cc1 | IC50: > 10.2 µM

Item: C[C@H]1OCN(C(=O)c2cc3ccccc3cc2SSc2cc3ccccc3cc2C(=O)N2CO[C@H](C)[C@H]2C(=O)O)[C@@H]1C(=O)O | IC50: > 100 µM

Item: C/C(=N/OC(=O)N(C)C)c1ccc(Cl)c(Cl)c1 | IC50: 102 µM

Item: COC(=O)c1[nH]c(=S)[nH]c(=O)c1-c1ccc(Cl)cc1 | IC50: 603 µM

###

- System: CEM cells HIV-1 protection, formazan growth assay
- experimental-protocol: NCI AIDS Antiviral Assay
pEC50: −log10 of the molar value.
pEC50 values, listed per item

{"molecule": "O=C(Cn1c2c(c3ccccc31)CCCC2)N1CCOCC1", "pEC50": "< 3.70"}
{"molecule": "Cc1ccc(Cc2cc(N3CCN(c4cccc(Cl)c4)CC3)nnc2C)cc1", "pEC50": "< 4.00"}
{"molecule": "Cc1ccccc1NC(=O)Cc1csc2[n+]1C(=O)/C(=C/c1ccc([N+](=O)[O-])cc1)S2", "pEC50": "< 3.70"}
{"molecule": "COc1ccc(C2(OC)Oc3cc(OC)ccc3C(=O)C2(O)O)cc1 (stereo not given)", "pEC50": "< 3.70"}
{"molecule": "Cn1ncc2[nH]cnc2c1=S", "pEC50": "< 3.70"}

Next:
Item: CCOc1c2c(nn(C)c1=O)Oc1ccccc1N2CCCN1CCOCC1 | pEC50: < 3.23

###

pIC50 values, listed per item
- Tested on: CEM cells HIV-1 protection, formazan growth assay
- experimental-protocol: NCI AIDS Antiviral Assay
- protocol-conditions: measured here: growth of uninfected CEM cells
Conceptually, pIC50 converts a concentration in mol/L into minus its log10.

{"molecule": "CCN(CC)CCCC(C)Nc1cc(C)nc2c1ccc1c2ccc2c(NC(C)CCCN(CC)CC)cc(C)nc21 (stereo not given)", "pIC50": 5.40}

Next:
Item: COC(=O)C1=C(C)N2CCSC2(C)C(C(=O)OC)C1c1cccc(Cl)c1 (stereo not given) | pIC50: 4.37

###

- System: CEM cells HIV-1 protection, formazan growth assay
- experimental-protocol: NCI AIDS Antiviral Assay;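 active = compounds giving half or more protection of infected cells from virus-caused growth loss, again on retest; inactive = the rest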
Would you mind answering with one of these outcomes? active, inactive

// known answers, use as guide
{"molecule": "O=C(SC1=NCCN1)c1cccc2ccccc12", "category": "inactive"}
{"molecule": "O=C1CN(/C=C(/c2ccc(Cl)cc2)S(=O)(=O)Cc2ccc(Cl)cc2)C(=S)N1", "category": "inactive"}

What classification did C[C@H]1CC(=O)C[C@@H]2CC[C@@H]3[C@H](CC[C@]4(C)C(OC(=O)c5cccc6c(=O)c7ccccc7[nH]c56)CC[C@@H]34)[C@]21C (stereo not given in full) end up with in this test?
inactive

What classification did N#CC(C#N)=Cc1ccc(C=C(C#N)C#N)cc1 end up with in this test?
inactive

What classification did COc1cccc2c1OC(c1ccc(C#N)cc1)C([N+](=O)[O-])=C2 (stereo not given) end up with in this test?
inactive

What classification did Fc1cccc(F)c1C1SCc2nc3cc4ccccc4cc3n21 (stereo not given) end up with in this test?
inactive

What classification did O=c1c(-c2ccc(O)c(O)c2)coc2cc(O)cc(O)c12 end up with in this test?
inactive

What classification did C=CC(=O)N1CN(C(=O)C=C)CN(C(=O)C=C)C1 end up with in this test?
inactive

What classification did Cn1c(=O)c2nc3n(c2n(C)c1=O)C(=O)C(C(=O)O)N=N3 (stereo not given) end up with in this test?
inactive

What classification did Cc1[nH]c2c(ccc3c2ccc2c(=O)c(C)c(C)[nH]c23)c(=O)c1C end up with in this test?
inactive

What classification did CSc1c(C#N)c(=O)n(N)c2n[nH]c(C)c12 end up with in this test?
inactive

What classification did Cc1[nH]c(=S)[nH]c(=O)c1CCl end up with in this test?
inactive

What classification did CC1=NN(C(=O)c2ccccc2O)C(=O)/C1=C/c1ccc(O)cc1 end up with in this test?
inactive

What classification did Cc1ccc([N+](=O)[O-])cc1NC1=NCCO1 end up with in this test?
inactive

What classification did Cc1cc(-c2ccc(N=Nc3c(S(=O)(=O)O)cc4cc(S(=O)(=O)O)cc(N)c4c3O)c(C)c2)ccc1N=Nc1c(S(=O)(=O)O)cc2cc(S(=O)(=O)O)cc(N)c2c1O end up with in this test?
active

What classification did CC[n+]1[b-](C(C)(C)C)n(/N=C/C(C)(C)C)[b-](C(C)(C)C)[n+]1CC end up with in this test?
inactive

What classification did O=C(Cc1ccccc1)Nn1c(-c2ccccc2)nc2ccccc2c1=O end up with in this test?
active

What classification did CC(C)CS(=O)(=O)/C(=C(\c1ccc(Br)cc1)S(=O)(=O)CC(C)C)c1ccc(Br)cc1 end up with in this test?
inactive

What classification did COC(=O)C1=C(C)N2CCSC2(C)C(C(=O)OC)C1c1cccc(Cl)c1 (stereo not given) end up with in this test?
inactive

What classification did CC1(C)OC2OC3C4COC(SSC56OCC(O5)C5OC7OC(C)(C)OC7C5O6)(O4)OC3C2O1 (stereo not given) end up with in this test?
inactive

What classification did CCOP(=O)(OCC)OC(C#N)c1ccc(-c2ccccc2)cc1 (stereo not given) end up with in this test?
inactive

What classification did Nc1c(-c2cccc3ccccc23)c2ccc([N+](=O)[O-])cc2c(=O)n1-c1nc2ccccc2s1 end up with in this test?
inactive

What classification did CN(C)c1ccc(-c2nn(C)c3nc(=O)n(C)c(=O)c-3[n+]2[O-])cc1 end up with in this test?
inactive
